experimentalDetails: Chemical test of capture of OH• radicals (deoxyribose competition)
Format: biochemical
testParameters: rate constant of reaction of the competitor with OH•; competition with 2-deoxyribose, UV at 532 nm
measuredMetric: ks (10^−9M^−1 sec^−1) (±SEM)

molecule="Cl.NC1CCCc2sccc21 (stereo not drawn)" result="3.37 ± 0.25 10^−9M^−1 sec^−1"
molecule="Cl.c1cc2c(s1)SCCC2N1CCCCC1 (stereo not drawn)" result="3.45 ± 0.19 10^−9M^−1 sec^−1"
molecule="c1cc2c(s1)CCCC2N1CCCCC1 (stereo not drawn)" result="3.61 ± 0.16 10^−9M^−1 sec^−1"

----------
experimentalDetails: Chemical test of capture of OH• radicals (deoxyribose competition)
Assay type: biochemical
testParameters: rate constant of reaction of the competitor with OH•; competition with 2-deoxyribose, UV at 532 nm
measuredMetric: ks (10^−9M^−1 sec^−1) (±SEM)

compound="Cl.c1cc2c(s1)CCCC2N1CCSCC1 (centres unmarked) [IC193]" result="3.41 ± 0.25 10^−9M^−1 sec^−1"
compound="O=C1O[C@H]([C@@H](O)CO)C(O)=C1O [vitamin C, reference compound]" result="1.87±0.17 10^−9M^−1 sec^−1"
compound="Cl.OC1CCN(C2CCCc3sccc32)CC1 (centres unmarked) [IC209]" result="3.27 ± 0.50 10^−9M^−1 sec^−1"
compound="O=C[C@@H](O)[C@@H](O)[C@H](O)[C@H](O)CO [D-mannose, reference compound]" result="0.94±0.06 10^−9M^−1 sec^−1"
compound="Cl.NC1CCCc2ccsc21 (centres unmarked) [IC178]" result="2.76 ± 0.06 10^−9M^−1 sec^−1"
compound="CN1CCN(C2CCCc3sccc32)CC1 (centres unmarked) [IC194]" result="3.50 ± 0.23 10^−9M^−1 sec^−1"
compound="Cl.c1cc2c(s1)SCCC2N1CCOCC1 (centres unmarked) [IC241]" result="3.01 ± 0.14 10^−9M^−1 sec^−1"
compound="O=C(O)c1ccccc1O [ac.salicyl., salicylic acid, reference compound]" result="3.02 ± 0.18 10^−9M^−1 sec^−1"
compound="c1cc2c(s1)CCCC2N1CCOCC1 (centres unmarked) [IC180]" result="3.75 ± 0.33 10^−9M^−1 sec^−1"
compound="CN1CCN(C2CCSc3sccc32)CC1 (centres unmarked) [IC242]" result="3.00 ± 0.19 10^−9M^−1 sec^−1"
compound="Cl.c1cc2c(s1)C(N1CCOCC1)CCC2 (centres unmarked) [IC2-16]" result="3.33 ± 0.15 10^−9M^−1 sec^−1"

----------
Overview of reported inhibition at 100 µM across a group of molecules:
system: UniProtKB P47989
Sequence (P47989 whole entry, species assumed): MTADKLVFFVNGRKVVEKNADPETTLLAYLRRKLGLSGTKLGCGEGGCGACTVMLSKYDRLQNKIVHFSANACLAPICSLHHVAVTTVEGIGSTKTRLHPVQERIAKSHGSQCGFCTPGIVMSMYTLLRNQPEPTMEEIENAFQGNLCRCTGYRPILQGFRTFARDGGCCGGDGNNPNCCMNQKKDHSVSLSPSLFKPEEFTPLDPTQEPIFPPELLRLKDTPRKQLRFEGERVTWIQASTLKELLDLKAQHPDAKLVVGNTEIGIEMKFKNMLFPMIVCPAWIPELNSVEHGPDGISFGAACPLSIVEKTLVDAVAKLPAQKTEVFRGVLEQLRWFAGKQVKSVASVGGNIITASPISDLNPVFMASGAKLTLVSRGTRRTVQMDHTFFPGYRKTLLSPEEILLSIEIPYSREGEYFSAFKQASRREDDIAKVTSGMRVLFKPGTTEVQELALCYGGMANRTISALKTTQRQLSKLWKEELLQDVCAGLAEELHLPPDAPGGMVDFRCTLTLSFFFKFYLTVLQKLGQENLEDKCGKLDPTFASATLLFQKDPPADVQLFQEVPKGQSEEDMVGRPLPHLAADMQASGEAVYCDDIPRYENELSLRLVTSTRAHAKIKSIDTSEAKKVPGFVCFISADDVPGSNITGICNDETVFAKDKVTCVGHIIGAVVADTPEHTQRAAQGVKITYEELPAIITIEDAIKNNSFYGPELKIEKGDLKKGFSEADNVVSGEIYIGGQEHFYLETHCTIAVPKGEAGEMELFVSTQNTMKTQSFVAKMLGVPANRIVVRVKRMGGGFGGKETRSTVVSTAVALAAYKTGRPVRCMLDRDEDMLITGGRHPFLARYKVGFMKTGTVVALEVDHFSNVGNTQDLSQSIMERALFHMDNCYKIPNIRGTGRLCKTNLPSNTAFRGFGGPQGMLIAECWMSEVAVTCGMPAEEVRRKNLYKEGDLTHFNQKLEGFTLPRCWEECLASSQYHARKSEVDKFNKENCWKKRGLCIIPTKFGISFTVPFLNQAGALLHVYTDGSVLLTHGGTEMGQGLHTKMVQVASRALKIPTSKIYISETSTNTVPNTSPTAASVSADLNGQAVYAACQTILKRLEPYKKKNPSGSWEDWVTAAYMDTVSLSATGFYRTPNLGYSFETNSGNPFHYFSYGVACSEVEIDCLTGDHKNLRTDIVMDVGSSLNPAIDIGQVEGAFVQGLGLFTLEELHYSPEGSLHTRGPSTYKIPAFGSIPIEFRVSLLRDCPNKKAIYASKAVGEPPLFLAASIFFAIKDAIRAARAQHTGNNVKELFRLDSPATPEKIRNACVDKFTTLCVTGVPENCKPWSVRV
experimentalDetails: Action of the derivatives on xanthine oxidase
Assay type: biochemical
testParameters: read-out: % inhibition 100 μM
measuredMetric: inhibition at 100 µM (%)

molecule="c1cc2c(s1)CCCC2N1CCOCC1 (stereo not shown) [IC180]" system="UniProtKB P47989" measuredmetric="inhibition at 100 µM" quantitativeresult=0
molecule="c1cc2c(s1)CCCC2N1CCCCC1 (stereo not shown) [IC023]" system="UniProtKB P47989" measuredmetric="inhibition at 100 µM" quantitativeresult=-6
molecule="Oc1ncnc2[nH]ncc12 [Allopurinol, reference compound]" system="UniProtKB P47989" measuredmetric="inhibition at 100 µM" quantitativeresult=92
molecule="Cl.c1cc2c(s1)SCCC2N1CCCCC1 (stereo not shown) [IC237]" system="UniProtKB P47989" measuredmetric="inhibition at 100 µM" quantitativeresult=-9

Data origin: patent US6514967B1
